target: GlcNAc(b1-3)Gal(b1-4)GlcNAc(b1-3)Gal(b1-4)GlcNAc; assay: glycan array binding signal (z-score within array); higher = stronger binding; conditions: glycan notation: IUPAC condensed, linker removed
This excerpt belongs to a sample that is enriched for the strongest signals.
Parameter: glycan array binding signal (z-score). Scope: all listed entries.

binder: X56-1 (Clostridium perfringens), P26831 (protein) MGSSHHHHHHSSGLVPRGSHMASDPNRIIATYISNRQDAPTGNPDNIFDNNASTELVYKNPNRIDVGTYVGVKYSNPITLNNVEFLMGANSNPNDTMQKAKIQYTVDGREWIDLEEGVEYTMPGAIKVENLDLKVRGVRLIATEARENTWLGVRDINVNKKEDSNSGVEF
glycan array binding signal (z-score): -0.172

binder: SLP (Clostridium difficile), Q183M8 (protein) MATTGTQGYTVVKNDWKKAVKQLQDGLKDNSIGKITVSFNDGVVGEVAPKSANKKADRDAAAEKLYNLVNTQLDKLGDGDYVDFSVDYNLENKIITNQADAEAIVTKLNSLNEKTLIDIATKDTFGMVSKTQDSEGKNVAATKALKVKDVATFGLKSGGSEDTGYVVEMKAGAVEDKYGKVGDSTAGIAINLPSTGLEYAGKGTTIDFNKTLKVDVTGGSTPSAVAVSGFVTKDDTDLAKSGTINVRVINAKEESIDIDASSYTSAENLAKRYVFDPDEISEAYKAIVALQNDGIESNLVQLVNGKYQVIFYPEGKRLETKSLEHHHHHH
glycan array binding signal (z-score): -0.209

binder: Ecp6 (Cladosporium fulvum), B3VBK9 (protein) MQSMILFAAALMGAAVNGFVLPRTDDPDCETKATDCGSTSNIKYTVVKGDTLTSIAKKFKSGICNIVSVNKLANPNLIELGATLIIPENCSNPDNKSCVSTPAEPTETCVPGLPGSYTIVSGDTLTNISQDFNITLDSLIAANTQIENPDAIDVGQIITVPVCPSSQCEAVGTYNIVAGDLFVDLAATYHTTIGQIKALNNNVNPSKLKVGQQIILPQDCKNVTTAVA
glycan array binding signal (z-score): -0.075

binder: LecB PA7 (Pseudomonas aeruginosa) (protein) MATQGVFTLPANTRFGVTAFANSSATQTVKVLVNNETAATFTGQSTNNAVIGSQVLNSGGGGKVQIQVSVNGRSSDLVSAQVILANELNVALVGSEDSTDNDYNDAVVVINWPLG
glycan array binding signal (z-score): -0.503

binder: SSA (Sclerotinia sclerotiorum), A7XUK7 (protein) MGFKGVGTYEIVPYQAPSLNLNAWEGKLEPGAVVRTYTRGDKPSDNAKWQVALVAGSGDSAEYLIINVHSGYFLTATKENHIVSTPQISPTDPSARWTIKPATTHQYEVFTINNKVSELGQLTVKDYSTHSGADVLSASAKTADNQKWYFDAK
glycan array binding signal (z-score): -0.207

binder: SSR2 (Sclerotium rolfsii) (protein) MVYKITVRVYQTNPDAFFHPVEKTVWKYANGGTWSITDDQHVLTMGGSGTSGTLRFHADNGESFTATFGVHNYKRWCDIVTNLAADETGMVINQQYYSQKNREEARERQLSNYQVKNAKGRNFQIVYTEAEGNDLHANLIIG
glycan array binding signal (z-score): 0.873

binder: AidA (Burkholderia cenocepacia) (protein) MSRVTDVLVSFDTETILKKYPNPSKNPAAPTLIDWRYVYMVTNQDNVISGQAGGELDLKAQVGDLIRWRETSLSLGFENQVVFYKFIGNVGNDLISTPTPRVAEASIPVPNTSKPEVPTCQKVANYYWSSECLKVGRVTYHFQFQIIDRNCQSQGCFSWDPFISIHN
glycan array binding signal (z-score): 0.86

binder: Gz-CVNH (Gibberella zeae) (protein) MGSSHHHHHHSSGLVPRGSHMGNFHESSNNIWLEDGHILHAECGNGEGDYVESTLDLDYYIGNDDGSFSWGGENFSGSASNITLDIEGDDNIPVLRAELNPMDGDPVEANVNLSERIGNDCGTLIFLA
glycan array binding signal (z-score): -0.14

binder: Epf (Streptococcus pyogenes) (protein) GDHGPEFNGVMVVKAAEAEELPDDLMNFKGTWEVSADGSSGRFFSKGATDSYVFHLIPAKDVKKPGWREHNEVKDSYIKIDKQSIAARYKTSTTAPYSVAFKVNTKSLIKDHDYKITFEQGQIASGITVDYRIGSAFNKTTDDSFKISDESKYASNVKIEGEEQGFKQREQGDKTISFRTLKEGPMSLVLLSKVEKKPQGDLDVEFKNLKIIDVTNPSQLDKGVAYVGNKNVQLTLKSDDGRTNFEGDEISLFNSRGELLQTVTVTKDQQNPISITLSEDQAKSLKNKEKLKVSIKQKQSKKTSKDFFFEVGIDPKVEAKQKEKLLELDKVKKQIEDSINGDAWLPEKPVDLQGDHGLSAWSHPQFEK
glycan array binding signal (z-score): 0.659

Where these numbers come from: the supplement of paper PMC8728848
